- TARGET UNDER TEST: MetRS (C. parvum) (Cryptosporidium parvum)
- Sequence (Q5CVN0 entry or part of it): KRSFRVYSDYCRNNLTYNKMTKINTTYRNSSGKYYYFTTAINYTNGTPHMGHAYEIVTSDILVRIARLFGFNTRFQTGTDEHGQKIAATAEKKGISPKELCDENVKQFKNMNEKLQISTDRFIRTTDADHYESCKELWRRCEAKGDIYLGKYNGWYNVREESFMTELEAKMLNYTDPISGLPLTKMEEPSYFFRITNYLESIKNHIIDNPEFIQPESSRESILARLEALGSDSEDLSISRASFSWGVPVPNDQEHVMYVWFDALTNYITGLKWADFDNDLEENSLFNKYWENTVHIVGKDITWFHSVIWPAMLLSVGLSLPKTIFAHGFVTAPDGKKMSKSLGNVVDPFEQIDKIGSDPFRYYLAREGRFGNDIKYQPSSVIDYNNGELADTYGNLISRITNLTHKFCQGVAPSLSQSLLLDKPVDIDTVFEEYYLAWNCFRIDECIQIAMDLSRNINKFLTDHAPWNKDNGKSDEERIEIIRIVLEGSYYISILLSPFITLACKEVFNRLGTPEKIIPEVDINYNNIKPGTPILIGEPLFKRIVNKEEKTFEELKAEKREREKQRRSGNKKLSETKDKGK
- MEASUREMENT DESCRIPTION: MetRS (C. parvum) enzyme inhibition
- Assay type: biochemical
- DETAILS: read-out: (C) MetRS (C. parvum) IC50
Please respond with reported IC50 for every item in the list.

Briefly, IC50 measured for CCn1cc(-c2ccc(OC)cc2Cl)c2c1CCN(Cc1nc3nc(Cl)ccc3[nH]1)C2 : < 40 nM

The reported IC50 of the compound O=c1n(Cc2nc3ccc(Cl)nc3[nH]2)cc(Cc2ccc(Cl)cc2Cl)n1CC(F)F was < 40 nM

CCNC(=O)Cn1c(C(=O)c2ccc(Cl)cc2Cl)cn(Cc2nc3nc(Cl)ccc3[nH]2)c1=O has a reported IC50 of < 40 nM

Per the record, CC(C)n1c(Cc2ccc(Cl)cc2Cl)cn(Cc2nc3ccc(F)nc3[nH]2)c1=O has IC50 of < 40 nM

Per the record, COC(=O)c1c(Cl)ccc2[nH]c(Cn3cc(Cc4ccc(OC)cc4Cl)n(CC(C)(C)O)c3=O)nc12 has IC50 of > 1000 nM

Lookup result for COc1ccc(-c2cncc3nc(Cc4nc5nc(Cl)ccc5[nH]4)cn23)c(Cl)c1 ; measured IC50: < 40 nM
